Test system: SW-620
Test: NCI tumour cell line growth inhibition, 48 h
Activity calls are given as the source filed them. Cut-off read from the data, not from the text of the source: active = GI50 up to about 1.1 µM and inactive = higher.
observable: GI50

1. CCCC1N2CCCCC2[C@@H]2c3[nH]c4ccccc4c3CCN12 (stereo partly drawn) | > 100 µM (inactive)
2. O=C(OCC1CCCN2CCCCC12)c1ccncc1 (stereo not drawn) | > 100 µM (inactive)
3. CC1CN=C(N(C(=O)Nc2ccc(Cl)cc2)c2cccc(Cl)c2)S1 (stereo not drawn) | 41.9 µM (inactive)
4. CCC(C)C(NC(=O)c1cccc2c(=O)c3ccccc3[nH]c12)C(=O)O (stereo not drawn) | > 100 µM (inactive)
5. COc1ccc(-c2nc3cc(F)ccc3s2)cc1O | 87.9 µM (inactive)
6. COc1ccc(/C=C\c2cc(OC)c(O[Si](C)(C)C(C)(C)C)c(OC)c2)cc1 | 33.3 µM (inactive)
7. Nn1c(CCCCCCCCc2nnc(COc3ccc(Cl)cc3)n2N)nnc1COc1ccc(Cl)cc1 | > 100 µM (inactive)
8. c1ccc(SC2(Sc3ccccc3)CCCC2)cc1 | > 100 µM (inactive)
9. Br/C(=N\N=c1/nn[nH][nH]1)c1ccncc1 | > 100 µM (inactive)
10. COC(=O)C12CCC(CC1=O)C2(C)C (stereo not drawn) | > 100 µM (inactive)
11. CCOC(=O)C1C/C(C)=C(/C)SCCCS1 (stereo not drawn) | > 100 µM (inactive)
12. Nc1nc2cc(COc3ccc(C(=O)O)cc3)ccc2nc1-c1ccccc1 | > 10 µM (inactive)
13. CSc1nc2c(c(N(C)C)n1)C(O)n1c(nc3ccccc31)S2 (stereo not drawn) | > 100 µM (inactive)
14. COc1cc2c(cc1OCCCOS(C)(=O)=O)N=C[C@@H]1CCCN1C2=O | > 100 µM (inactive)
15. O=C1CC(Cl)c2c1csc2Br (stereo not drawn) | 3.48 µM (inactive)
16. Nc1nc(Cl)c2nnn(CC3CCC(CO)C3)c2n1 (stereo not drawn) | > 100 µM (inactive)
17. O=C(Cc1ccccc1[N+](=O)[O-])C(CO)c1ccccc1[N+](=O)[O-] (stereo not drawn) | > 100 µM (inactive)
18. COc1ccc(C)cc1NC(=S)C#N | > 100 µM (inactive)
19. CCOC(=O)C(C)c1nc2ccc(C(F)(F)F)cc2[nH]c1=O (stereo not drawn) | > 100 µM (inactive)
20. Cc1cc(N(CCC#N)CCC#N)ccc1/C=C1N=C(/C=C\c2ccccc2)N(NC(=O)CC(=O)Nc2ccccc2Cl)C\1=O | > 100 µM (inactive)
21. CCOC(=O)NN(C(=O)OCC)C(C(=O)C1=CCCCC1)N(NC(=O)OCC)C(=O)OCC | > 100 µM (inactive)
22. C/N=c1/oc2ccccc2cc1C(N)=O | > 100 µM (inactive)
23. O=C1C(Cl)=C(N(C(=O)c2ccccc2)C(=O)c2ccccc2)C(=O)c2ccccc21 | 5.15 µM (inactive)

* * *

Test system: DU-145
Assay: NCI tumour cell line growth inhibition, 48 h
Activity calls are given as the source filed them. Rule as the data show it: active = GI50 up to about 1.1 µM and inactive = higher.
observable: GI50

1) COC(=O)c1ccc2c(c1)CC1(C2)Cc2cc3c(c(C(=O)OC)c2C1)CCCC3 (stereo not given) | > 100 µM (inactive)
2) Nc1ccc2nc(N)n[n+]([O-])c2c1 | > 100 µM (inactive)
3) C/C(=N\Nc1ccc([N+](=O)[O-])cc1[N+](=O)[O-])c1ccc2ccccc2n1 | > 100 µM (inactive)
4) CCCCCCCCCCCCCCCCCCNc1ccn(C2OC(COP(=O)(O)OCC3CCC(n4cnc5c(=O)[nH]cnc54)O3)C(O)C2O)c(=O)n1 (stereo not given) | > 100 µM (inactive)
5) CCCCCCCCOC(=O)C12Oc3ccc(-c4ccc5c(c4O)C(=O)C4=C(O)CC(C)C(O)C4(C(=O)OCCCCCCCC)O5)c(O)c3C(=O)C1=C(O)CC(C)C2O (stereo not given) | 34.4 µM (inactive)
6) NC1CCCCC1NCCNC1CCCCC1N (stereo not given) | > 100 µM (inactive)
7) O=C(O)CSc1nnc2c3ccccc3c3ccccc3c2n1 | 57.9 µM (inactive)
8) c1ccc(Nc2nnc(Cn3ccc4ccccc43)s2)cc1 | 92.9 µM (inactive)
9) O=C1c2c(F)c(F)c(F)c(F)c2SC2=NCCN12 | 17.3 µM (inactive)
10) FC(F)(F)c1nc2ccc(SSc3ccc4nc(C(F)(F)F)[nH]c4c3)cc2[nH]1 | > 10 µM (inactive)
